Values were extracted from the supplement of paper PMC10567573.

# ASSAY_NOTES: protein stability index of a GFP-peptide fusion (GPS, HEK-293T) (PSI 1-6); higher = more stable;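 also: 24-mer peptide tiles fused after GFP, lentivirally expressed, FACS-sorted into six equal bins by GFP/DsRed ratio, decoded by Illumina sequencing, PSI is the read-weighted mean bin number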
# SETUP_CONDITIONS: treatment: MLN4924 1 uM, 8 h; c terminus: a fixed tail appended
MEASUREMENT_KIND: protein stability index

Study these solved cases before continuing.
{"PRIMARY_SEQUENCE": "VETLVKKKIPIISNAMLVGDKLKF [ACSBG2]", "protein stability index": 2.61}
{"PRIMARY_SEQUENCE": "DHQDSDEFCRNTLCAPEVISLINT [FAF2]", "protein stability index": 3.67}
{"PRIMARY_SEQUENCE": "PKDENERSTCNVVQDEFLDTPCTN [DLC1]", "protein stability index": 5.41}
{"PRIMARY_SEQUENCE": "LFGDAFAASPGEAPAASEGAAAPA [SNAP91]", "protein stability index": 5.15}
{"PRIMARY_SEQUENCE": "PTRCTLEAGAMTFHYIIEQGVCYL [SEC22B]", "protein stability index": 3.14}
{"PRIMARY_SEQUENCE": "KAMNMRYSDRTNIISKPVPQTLIM [FEM1C]", "protein stability index": 2.38}
{"PRIMARY_SEQUENCE": "RYLLCELVSDDPRCRLSLDDRVLS [POP5]", "protein stability index": 2.36}
{"PRIMARY_SEQUENCE": "RIHTEEKPYKCQQCDKRFRWSSDL [ZNF75A]", "protein stability index": 2.94}
{"PRIMARY_SEQUENCE": "LESLRTAQKTALLQDGRRKVHYLF [DPCD]", "protein stability index": 2.45}
{"PRIMARY_SEQUENCE": "TLSWYFLLCVNYFFYGETVTDYFF [CDS2]", "protein stability index": 3.48}

Field: protein stability index. Fill in for each record below.
1. VRSLRGEEPVPRERDRDPCGGSGG [LURAP1L]
2. AIIRERSSCVKILLDHNANIDIQN [ASB7]
3. VNLQRFGMNGQMLCNLGKERFLEL [ETS2]
4. TPAEGDTEEDDGFVDILESDLKDD [CDC25B]
5. GLPPSGSWQDLKDHMREAGDVCYA [SRSF1]
6. FEVPYYNRGLILYRLGYFDDALED [TTC32]

A:
5.35
2.64
2.27
5.62
3.83
2.23
